Source of measurements: ChEMBL document CHEMBL1201862

Known GI50 of a selection of compounds
system: MDA-N; assay: NCI tumour cell line growth inhibition, 48 h
Calls of active or inactive are those of the source. Rule as the data show it: active = GI50 up to about 1.1 µM and inactive = higher.
Readout Kind: GI50

CCOC(=O)C(O)(CC1=NC(C(=O)OC)(C(=O)OC)C(c2cccc(C=O)c2)O1)C(=O)OCC (stereo not given) = > 100 µM (inactive)
NC(=O)NCCCC(NC(=O)OCCCCCCn1ccc(=O)[nH]c1=O)C(=O)O (stereo not given) = > 100 µM (inactive)
CN1CCN(CCCN2c3ccccc3Sc3ccc(C(F)(F)F)cc32)CC1 = 3.2 µM (inactive)
O=C(Nc1nncs1)NS(=O)(=O)n1cnc2ccccc21 = > 100 µM (inactive)
CC(=O)OC(OC(C)=O)c1ccc2ccc3cccc4ccc1c2c34 = 15.2 µM (inactive)
CCC1=CCC23C(=O)C=CC(=O)C2(C1)C(=O)c1cccc(OC)c1C3=O (stereo not given) = 16.5 µM (inactive)
CC(C)C(=O)CP(=O)(O)O = > 100 µM (inactive)
CC1(C)O[C@H]2OC(CO)C(N=[N+]=[N-])[C@H]2O1 (stereo not given in full) = > 100 µM (inactive)
Cc1cc(O)c2c(c1O)C(=O)c1c(O)ccc(O)c1C2=O = > 100 µM (inactive)
COc1cc2cc(C(=O)N3CC(COS(C)(=O)=O)c4ccc(NC(=O)OCc5ccccc5)cc43)[nH]c2c(OC)c1OC (stereo not given) = > 100 µM (inactive)
O=C(O)Cc1cccc2c1OC(c1ccccc1)C(Cl)(C(=O)c1ccccc1)C2=O (stereo not given) = 14.4 µM (inactive)
COC(=O)C1(C(=O)OC)N=C(C)OC1c1ccccn1 (stereo not given) = > 100 µM (inactive)
O=C[C@@H](CO)O[C@H](C=O)c1c[nH]c(=O)[nH]c1=O = 70.8 µM (inactive)
Cc1nc2ccccc2n1Cc1ccc(NC(=S)Nc2ccccc2)cc1 = 31 µM (inactive)
CCCn1c(=O)c2ccccc2[n+]2c(-c3ccc([N+](=O)[O-])cc3)csc12 = 31.3 µM (inactive)
